target: CDK2 (human) (UniProt P24941); test: Enzyme Assay; details: concentration not given here
Measured metric: inhibition (%)
Give your result in % as a bare value.

Answered cases to consult:
Compound	inhibition (%)
Cc1ccc(C)c(CCCC(=O)N2CCC(Nc3nc(N)c(C(=O)c4c(F)cccc4F)s3)CC2)c1	41
CC(C)C(C(=O)N1CCC(Nc2nc(N)c(C(=O)c3c(F)cccc3F)s2)CC1)c1ccccc1 (stereo not given)	29
Cc1ccccc1C(=O)N1CCC(Nc2nc(N)c(C(=O)c3c(F)cccc3F)s2)CC1	-11
Cc1cc(Cl)ccc1C(=O)N1CCC(Nc2nc(N)c(C(=O)c3c(F)cccc3F)s2)CC1	45

Now examine the next entry.
// query inhibition value for entry CC(C)(O)CC(=O)N1CCC(Nc2nc(N)c(C(=O)c3c(F)cccc3F)s2)CC1
51

###

Documented inhibition across a set of compounds
molecular target: CDK2 (human) (UniProt P24941); experiment: Enzyme Assay; conditions: concentration not given here
Give your result in % as a bare value.

Given smiles	Reported result
N#C/C(=C\c1ccccc1)C(=O)N1CCC(Nc2nc(N)c(C(=O)c3c(F)cccc3F)s2)CC1	67
COc1cc(SC)ccc1C(=O)N1CCC(Nc2nc(N)c(C(=O)c3c(F)cccc3F)s2)CC1	22
NC(=S)Nc1ccc(C(=O)N2CCC(Nc3nc(N)c(C(=O)c4c(F)cccc4F)s3)CC2)cc1	73

// query inhibition value for entry Nc1nc(NC2CCN(C(=O)CSc3ccncc3)CC2)sc1C(=O)c1c(F)cccc1F
23

// query inhibition value for entry Nc1nc(NC2CCN(C(=O)CCc3ccc(O)cc3)CC2)sc1C(=O)c1c(F)cccc1F
13

###

Documented inhibition across a set of compounds
molecular target: CDK2 (human) (UniProt P24941); test: Enzyme Assay; conditions: concentration not given here
Give your result in % as a bare value.

Answered cases to consult:
Compound	inhibition (%)
CC(=O)O[C@@H](C(=O)N1CCC(Nc2nc(N)c(C(=O)c3c(F)cccc3F)s2)CC1)c1ccccc1	25
CN(C)c1ccccc1C(=O)N1CCC(Nc2nc(N)c(C(=O)c3c(F)cccc3F)s2)CC1	6
CCC/C=C/CC(=O)N1CCC(Nc2nc(N)c(C(=O)c3c(F)cccc3F)s2)CC1	49

I'm curious: which inhibition was measured for CSc1ccccc1C(=O)N1CCC(Nc2nc(N)c(C(=O)c3c(F)cccc3F)s2)CC1 tested on CDK2 (human) (UniProt P24941)?
40

I'm curious: which inhibition was measured for Nc1nc(NC2CCN(C(=O)Cc3ccccc3O)CC2)sc1C(=O)c1c(F)cccc1F tested on CDK2 (human) (UniProt P24941)?
48

I'm curious: which inhibition was measured for Nc1nc(NC2CCN(C(=O)C3CCCO3)CC2)sc1C(=O)c1c(F)cccc1F (centres undefined) tested on CDK2 (human) (UniProt P24941)?
27

I'm curious: which inhibition was measured for Cc1ccc(CCC(=O)N2CCC(Nc3nc(N)c(C(=O)c4c(F)cccc4F)s3)CC2)cc1 tested on CDK2 (human) (UniProt P24941)?
36

I'm curious: which inhibition was measured for Nc1nc(NC2CCN(C(=O)[C@@H]3CCC(=O)O3)CC2)sc1C(=O)c1c(F)cccc1F tested on CDK2 (human) (UniProt P24941)?
95

###

target: CDK2 (human) (UniProt P24941); test: Enzyme Assay; conditions: concentration not given here
Would you mind labelling by inhibition? At or over -20% is criterion met, under is criterion not met.

# count of solved cases: 7
Compound	Label class
CC(=O)CC(=O)C(=O)N1CCC(Nc2nc(N)c(C(=O)c3c(F)cccc3F)s2)CC1	criterion met
COc1ccc(Cl)cc1C(=O)N1CCC(Nc2nc(N)c(C(=O)c3c(F)cccc3F)s2)CC1	criterion met
Nc1nc(NC2CCN(C(=O)C(=O)c3c[nH]c4ccccc34)CC2)sc1C(=O)c1c(F)cccc1F	criterion not met
CO[C@](C(=O)N1CCC(Nc2nc(N)c(C(=O)c3c(F)cccc3F)s2)CC1)(c1ccccc1)C(F)(F)F	criterion not met
Cc1ccc2[nH]c(C(=O)N3CCC(Nc4nc(N)c(C(=O)c5c(F)cccc5F)s4)CC3)cc2c1	criterion met
Nc1nc(NC2CCN(C(=O)C(O)c3cccc(O)c3)CC2)sc1C(=O)c1c(F)cccc1F (stereo not drawn)	criterion met
COc1ccccc1/C=C/C(=O)N1CCC(Nc2nc(N)c(C(=O)c3c(F)cccc3F)s2)CC1	criterion met

Now for another entry.
Is inhibition for Nc1nc(NC2CCN(S(=O)(=O)c3c(Cl)cc(C(F)(F)F)cc3Cl)CC2)sc1C(=O)c1c(F)cccc1F at or above -20%?
criterion not met

###

Documented inhibition across a set of molecules
molecular target: CDK2 (human) (UniProt P24941); assay: Enzyme Assay; settings: concentration not given here
Give your result in % as a bare value.

Answered cases to consult:
Molecule	Tgt	Measured metric	Reported result
Nc1nc(NC2CCN(C(=O)c3ccc(-c4ccccc4)cc3)CC2)sc1C(=O)c1c(F)cccc1F	CDK2 (human) (UniProt P24941)	inhibition	-11
Nc1nc(NC2CCN(C(=O)C3(c4ccc(Cl)cc4)CC3)CC2)sc1C(=O)c1c(F)cccc1F	CDK2 (human) (UniProt P24941)	inhibition	-1
CCCCC(CC)COC(=O)N1CCC(Nc2nc(N)c(C(=O)c3c(F)cccc3F)s2)CC1 (stereo not given)	CDK2 (human) (UniProt P24941)	inhibition	-42
CSCC(=O)N1CCC(Nc2nc(N)c(C(=O)c3c(F)cccc3F)s2)CC1	CDK2 (human) (UniProt P24941)	inhibition	84

Now examine the next entry.
// query inhibition value for entry C=CCC/C=C/C(=O)N1CCC(Nc2nc(N)c(C(=O)c3c(F)cccc3F)s2)CC1
69

###

target: CDK2 (human) (UniProt P24941); assay: Enzyme Assay; conditions: concentration not given here
Measured metric: inhibition (%)
Give your result in % as a bare value.

// query inhibition value for entry CC(C)C(C)C(=O)N1CCC(Nc2nc(N)c(C(=O)c3c(F)cccc3F)s2)CC1 (stereo not given)
35

// query inhibition value for entry CC(C)=CC1C(C(=O)N2CCC(Nc3nc(N)c(C(=O)c4c(F)cccc4F)s3)CC2)C1(C)C (stereo not given)
10

###

biological target: CDK2 (human) (UniProt P24941); assay: Enzyme Assay; conditions: concentration not given here
Would you mind labelling by inhibition? At or over 50% is Yes, under is No.

# count of solved cases: 3
Given smiles	Label class
Nc1nc(NC2CCN(C(=O)CCC(=O)c3ccc(F)cc3)CC2)sc1C(=O)c1c(F)cccc1F	No
CC(=O)Oc1cccc(C(=O)N2CCC(Nc3nc(N)c(C(=O)c4c(F)cccc4F)s3)CC2)c1	Yes
COc1cc(C(=O)N2CCC(Nc3nc(N)c(C(=O)c4c(F)cccc4F)s3)CC2)cc(OC)c1C	Yes

Now for another entry.
Is inhibition for Nc1nc(NC2CCN(C(=O)c3ccoc3)CC2)sc1C(=O)c1c(F)cccc1F at or above 50%?
No

###

biological target: CDK2 (human); test: Enzyme Assay; details: concentration not given here
Would you mind labelling by inhibition? At or over 50% is criterion met, under is criterion not met.

# count of solved cases: 3
Molecule	Label class
Nc1nc(NC2CCN(C(=O)Cc3ccccn3)CC2)sc1C(=O)c1c(F)cccc1F	criterion met
Nc1nc(NC2CCN(C(=O)Cc3cccc(F)c3F)CC2)sc1C(=O)c1c(F)cccc1F	criterion met
Nc1nc(NC2CCN(C(=O)/C=C/c3cccs3)CC2)sc1C(=O)c1c(F)cccc1F	criterion not met

Is inhibition for Nc1nc(NC2CCN(C(=O)c3cccs3)CC2)sc1C(=O)c1c(F)cccc1F at or above 50%?
criterion met

Is inhibition for Cc1cc(C(=O)N2CCC(Nc3nc(N)c(C(=O)c4c(F)cccc4F)s3)CC2)n(C(C)(C)C)n1 at or above 50%?
criterion met

Is inhibition for COC1CCC(C(=O)N2CCC(Nc3nc(N)c(C(=O)c4c(F)cccc4F)s3)CC2)CC1 (centres undefined) at or above 50%?
criterion met

Is inhibition for Nc1nc(NC2CCN(S(=O)(=O)c3cccc([N+](=O)[O-])c3)CC2)sc1C(=O)c1c(F)cccc1F at or above 50%?
criterion not met

Is inhibition for Cc1ccc(C(=O)N2CCC(Nc3nc(N)c(C(=O)c4c(F)cccc4F)s3)CC2)cn1 at or above 50%?
criterion not met

Is inhibition for N#Cc1ccccc1C(=O)N1CCC(Nc2nc(N)c(C(=O)c3c(F)cccc3F)s2)CC1 at or above 50%?
criterion met

###

target: CDK2 (human) (UniProt P24941); assay: Enzyme Assay; details: concentration not given here
Would you mind labelling by inhibition? At or over 50% is satisfied, under is not satisfied.

# count of solved cases: 4
Compound	Tgt	Label class
Nc1nc(NC2CCN(C(=O)C(O)c3c(F)cccc3F)CC2)sc1C(=O)c1c(F)cccc1F (stereo not drawn)	CDK2 (human) (UniProt P24941)	satisfied
Nc1nc(NC2CCN(C(=O)c3cnccc3C(F)(F)F)CC2)sc1C(=O)c1c(F)cccc1F	CDK2 (human) (UniProt P24941)	not satisfied
Nc1nc(NC2CCN(S(=O)(=O)c3ccc(CNC(=O)c4ccc(O)cc4)s3)CC2)sc1C(=O)c1c(F)cccc1F	CDK2 (human) (UniProt P24941)	satisfied
CC(O)(CC(=O)N1CCC(Nc2nc(N)c(C(=O)c3c(F)cccc3F)s2)CC1)C(F)(F)F (stereo not drawn)	CDK2 (human) (UniProt P24941)	satisfied

Is inhibition for CC[C@@H](C(=O)N1CCC(Nc2nc(N)c(C(=O)c3c(F)cccc3F)s2)CC1)c1ccccc1 at or above 50%?
not satisfied

Is inhibition for Nc1nc(NC2CCN(C(=O)c3cnc4ccccc4n3)CC2)sc1C(=O)c1c(F)cccc1F at or above 50%?
satisfied
